Record form. Attribute: IC50. Fill in for each entry.
# EXPERIMENTAL_TARGET: CDK2/Cyclin A (Homo sapiens (Human), UniProt P24941)
# TEST_NAME: Invitrogen Z'-LYTE kinase assay CDK2/Cyclin A (assay ID 315, Km app, 10-point titration)
# STATED_CONDITIONS: Km app ATP
Form entry: value (nM) — number only.

### Prompt Give IC50 for the following molecule: NC(=O)c1c(F)cccc1Nc1nc(NC2CCN(S(=O)(=O)CCNC(=O)CCOCCOCCOc3cccc4c3C(=O)N(C3CCC(=O)NC3=O)C4=O)CC2)ncc1Br (centres unmarked)
### Response 4.9

### Prompt Give IC50 for the following molecule: Cc1cc(S(=O)(=O)NCCCCN2CCN(C(=O)COc3cccc4c3C(=O)N(C3CCC(=O)NC3=O)C4=O)CC2)ccc1Nc1ncc(Br)c(Nc2cccc(F)c2C(N)=O)n1 (centres unmarked)
### Response 2

### Prompt Give IC50 for the following molecule: Cc1cc(Nc2ncc(Br)c(Nc3cccc(F)c3C(N)=O)n2)ccc1S(=O)(=O)NCCOCCOCCOCCOCCNc1cccc2c1C(=O)N(C1CCC(=O)NC1=O)C2=O (centres unmarked)
### Response 8.1

### Prompt Give IC50 for the following molecule: NC(=O)c1c(F)cccc1Nc1nc(NC2CCN(S(=O)(=O)CCNC(=O)CCOCCOCCOCCOCCOCCOCCOCCOCCNc3cccc4c3C(=O)N(C3CCC(=O)NC3=O)C4=O)CC2)ncc1Br (centres unmarked)
### Response 7.3

### Prompt Give IC50 for the following molecule: O=C(CCOCCOCCOCCOCCNc1cccc2c1C(=O)N(C1CCC(=O)NC1=O)C2=O)NCCS(=O)(=O)N1CCC(Nc2ncc(Br)c(Nc3cccc4c3C(=O)NC4)n2)CC1 (centres unmarked)
### Response 4.7

====

# EXPERIMENTAL_TARGET: CDK2/Cyclin A (Homo sapiens (Human))
# TEST_NAME: Invitrogen Z'-LYTE kinase assay CDK2/Cyclin A (assay ID 315, Km app, 10-point titration)
# STATED_CONDITIONS: Km app ATP
Record form. Attribute: IC50. Fill in for each entry.
Form entry: value (nM) — number only.

### Prompt Give IC50 for the following molecule: Cc1cc(S(=O)(=O)NCCCCCCCCCCNC(=O)COc2cccc3c2C(=O)N(C2CCC(=O)NC2=O)C3=O)ccc1Nc1ncc(Br)c(Nc2cccc(F)c2C(N)=O)n1 (centres unmarked)
### Response 19.4

### Prompt Give IC50 for the following molecule: NC(=O)c1c(F)cccc1Nc1nc(NC2CCN(S(=O)(=O)CCNC(=O)CCOCCNc3cccc4c3C(=O)N(C3CCC(=O)NC3=O)C4=O)CC2)ncc1Br (centres unmarked)
### Response 5.1

### Prompt Give IC50 for the following molecule: O=C(CCOCCOCCOCCOCCNc1cccc2c1C(=O)N(C1CCC(=O)NC1=O)C2=O)NCCS(=O)(=O)N1CCC(Nc2ncc(Br)c(N3CCCc4ccccc43)n2)CC1 (centres unmarked)
### Response 23.7

### Prompt Give IC50 for the following molecule: NC(=O)c1c(F)cccc1Nc1nc(N[C@@H]2CCCN(S(=O)(=O)CCNC(=O)CCCCCCCCOc3cccc4c3C(=O)N(C3CCC(=O)NC3=O)C4=O)C2)ncc1Br (some centres unmarked)
### Response 347

### Prompt Give IC50 for the following molecule: O=C(CCCCCCCCOc1cccc2c1C(=O)N(C1CCC(=O)NC1=O)C2=O)NCCS(=O)(=O)N1CCC(Nc2ncc(Br)c(Nc3cccc4c3OCO4)n2)CC1 (centres unmarked)
### Response 253

### Prompt Give IC50 for the following molecule: Cn1ncc(Nc2nc(NC3CCN(S(=O)(=O)CCNC(=O)CCCCCCCCOc4cccc5c4C(=O)N(C4CCC(=O)NC4=O)C5=O)CC3)ncc2Br)c1C(N)=O (centres unmarked)
### Response 5.7

### Prompt Give IC50 for the following molecule: NC(=O)c1c(F)cccc1Nc1nc(NC2CCN(S(=O)(=O)CCNC(=O)CCOCCOCCOCCOCCNc3cccc4c3C(=O)N(C3CCC(=O)NC3=O)C4=O)CC23CC3)ncc1Br (centres unmarked)
### Response 116

### Prompt Give IC50 for the following molecule: NC(=O)c1c(F)cccc1Nc1nc(NC2CCN(S(=O)(=O)CCNC(=O)CCCCCCCOc3cccc4c3C(=O)N(C3CCC(=O)NC3=O)C4=O)CC2)ncc1Br (centres unmarked)
### Response 17.1

### Prompt Give IC50 for the following molecule: NC(=O)c1c(F)cccc1Nc1nc(Nc2ccc(S(=O)(=O)NCCOCCOCCOCCOCCNc3cccc4c3C(=O)N(C3CCC(=O)NC3=O)C4=O)cc2)ncc1Br (centres unmarked)
### Response 10.9

### Prompt Give IC50 for the following molecule: Cc1cc(S(=O)(=O)NCCOCCOCCOCCOCCNC(=O)COc2cccc3c2C(=O)N(C2CCC(=O)NC2=O)C3=O)ccc1Nc1ncc(Br)c(Nc2cccc(F)c2C(N)=O)n1 (centres unmarked)
### Response 1.7

### Prompt Give IC50 for the following molecule: NC(=O)c1c(F)cccc1Nc1nc(NC2CCN(S(=O)(=O)CCNC(=O)CCCCCOc3cccc4c3C(=O)N(C3CCC(=O)NC3=O)C4=O)CC2)ncc1Br (centres unmarked)
### Response 20.5

All values here come from patent US12466809B2.
